Molecular target: rat angiotensin 2 type 1 receptor (rat) (UniProt P25095)
Sequence (P25095 whole entry): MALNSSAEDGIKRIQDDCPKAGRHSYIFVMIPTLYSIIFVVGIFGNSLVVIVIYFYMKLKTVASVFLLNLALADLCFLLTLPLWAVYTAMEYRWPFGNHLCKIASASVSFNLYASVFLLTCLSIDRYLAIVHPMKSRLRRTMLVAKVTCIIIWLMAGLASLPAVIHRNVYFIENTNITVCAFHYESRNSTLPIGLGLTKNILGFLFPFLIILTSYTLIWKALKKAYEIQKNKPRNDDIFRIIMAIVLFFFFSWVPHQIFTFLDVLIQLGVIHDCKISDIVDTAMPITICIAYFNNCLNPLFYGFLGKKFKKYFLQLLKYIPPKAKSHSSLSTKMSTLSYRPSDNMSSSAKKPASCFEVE
Assay: cell-based or functional assay
Overview of reported b-arrestin2 EC50 across a group of substances:
readout.label: b-arrestin2 EC50 (µM)

substance | readout.label | unit | sign.qualifier | recorded.number
SEQ ID NO: 32 (Me2G-Arg-Val-Tyr-Ile-His-Pro-Ala-OH) (peptide) | b-arrestin2 EC50 | µM | = | 0.043
SEQ ID NO: 3 (Sar-Arg-Val-Ile-Val-His-Pro-Ile-OH) (peptide) | b-arrestin2 EC50 | µM | = | 0.12
SEQ ID NO: 44 (NMAla-Arg-Val-Tyr-Ile-His-Pro-D-Ala-OH) (peptide) | b-arrestin2 EC50 | µM | = | 0.065
SEQ ID NO: 29 (Sar-Arg-Val-OMTyr-Ile-His-Pro-Ala-OH) (peptide) | b-arrestin2 EC50 | µM | = | 0.2
SEQ ID NO: 27 (Sar-Arg-Val-Tyr-Ile-His-Pro-D-Ala-OH) (peptide) | b-arrestin2 EC50 | µM | = | 0.016
SEQ ID NO: 84 (Sar-Arg-Val-Tyr-OMTh-His-Pro-D-Ala-OH) (peptide) | b-arrestin2 EC50 | µM | = | 0.016
SEQ ID NO: 65 (N-Me-Asp-Arg-Val-Tyr-Phe-His-Pro-NH2) (peptide) | b-arrestin2 EC50 | µM | = | 2.8
SEQ ID NO: 6 (Sar-Arg-Val-Gly-Val-His-Pro-Gly-NH2) (peptide) | b-arrestin2 EC50 | µM | > | 10

Just for reference, patent US20240025949A1 is where these values come from.
